Tested on: HCT-116
Test: NCI tumour cell line growth inhibition, 48 h
Active and inactive are the calls of the source. No stated cut-off is given here; in the data, active = GI50 up to about 1.1 µM and inactive = higher.
Result category, one only: active, inactive

Sample answers from the record:
                                   compound  group_label
0       CN(C)CC/C(=N\Nc1ccc(Cl)cc1)c1ccccc1     inactive
1  C[C@@H]1C[C@H]2OC(=O)[C@@]3(C)CCC[C@@](C)([C@@H]23)[C@@]1(O)CCc1ccoc1     inactive
2   COC(=O)c1ccc(CCC2=CC(=O)C(Br)=CC2=O)cc1     inactive
3         CC(=O)C(=[N+]=[N-])C(=O)N(C)CCC#N     inactive
4  COC(=O)C(C(=O)C(=O)Nc1ccc(C)cc1)c1nc2ccc([N+](=O)[O-])cc2nc1O (stereo unspecified)     inactive

Check the results log: what was the call for `C/C(=N\Nc1nc2ccccc2o1)c1cc(C)ncn1` ? active

Same thing, different compound: `CCCSC1=N/C(=C\c2ccco2)C(=O)N1` inactive

Same thing, different compound: COc1ccc2nccc(C3OC(=O)N4CCC(=O)CC34)c2c1 (stereo unspecified) inactive

Same thing, different compound: C=C1CC2OC2(C(=O)O[C@H]2CCC3[C@@H]4CCC5=CC(=O)CC[C@]5(C)C4CC[C@@]32C)C1=O (stereo partly specified) inactive

Same thing, different compound: `NC(=O)C(=CN1C(=O)CC(=O)NC1=S)C(N)=O` inactive

Same thing, different compound: C=CC1(CBr)CCC(C(C)(C)Br)O1 (stereo unspecified) inactive

All values here come from ChEMBL document CHEMBL1201862.
